- assay.notes: Selectivity index, ratio of CC50 for human MT4 cells to EC50 for HIV1 cells
- Assay type: toxicity, cell-based
- condition.context: read-out: Ratio CC50/EC50
value.type: selectivity ratio

The cases that follow already have their selectivity ratio on record.
>>> value("O=C1c2ccccc2C(=O)N1CCO/C(=N\\c1ccccc1Cl)SS/C(=N/c1ccccc1Cl)OCCN1C(=O)c2ccccc2C1=O")
"< 1"
>>> value("Cc1ccc2c(c1)C(=O)N(CCO/C(=N\\c1ccc(Br)cc1)SS/C(=N/c1ccc(Br)cc1)OCCN1C(=O)c3ccc(C)cc3C1=O)C2=O")
"> 77"
>>> value("O=C1c2ccccc2C(=O)N1CCO/C(=N\\c1ccc(C(F)(F)F)cc1)SS/C(=N/c1ccc(C(F)(F)F)cc1)OCCN1C(=O)c2ccccc2C1=O")
"> 1000"
>>> value("O=C1c2ccccc2C(=O)N1CCO/C(=N\\c1ccc(Cl)c(C(F)(F)F)c1)SS/C(=N/c1ccc(Cl)c(C(F)(F)F)c1)OCCN1C(=O)c2ccccc2C1=O")
"> 3.6"

Q) Given N#Cc1ccc(/N=C(\OCCN2C(=O)c3ccccc3C2=O)SS/C(=N/c2ccc(C#N)cc2)OCCN2C(=O)c3ccccc3C2=O)cc1 , state its recorded selectivity ratio.
A) > 1000

Q) Given Cc1ccc(/N=C(\OCCN2C(=O)c3ccccc3C2=O)SS/C(=N/c2ccc(C)c(Cl)c2)OCCN2C(=O)c3ccccc3C2=O)cc1Cl , state its recorded selectivity ratio.
A) > 500
